PROTOCOL_DETAILS: soluble fraction after stress (log2 fold change); higher = more stays soluble; pooled small domains, quantitative proteomics;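 also: 20 min heating vs room temperature control held 20 min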
TEST_SETTINGS: stress: 75 degC
Assign condition met to entries whose soluble fraction (log2) meets or exceeds -0.4; assign condition not met to the rest.

| SEQUENCE_CODE | DISCRETE_LABEL |
| --- | --- |
| HMLDEIAGQKVRVLEEINNSEGTGKVMYRGVEWMARSVDDAVMAKDSIVTVQSISGVKLMVT | condition met |
| HMKNLADNIVALRKKHGLSQEQFAEKIDVTRQAVSNWERRIATPDVETIDLIAKLFDTDLTALVNG | condition met |
| HMTEKQYIYSIGDRVNIGTDEFEIVNINEKEVSIADVTFPMLVKQISYEEFDRKVKENPFNDHLII | condition met |
| HMQQQLLHIVFGGELKDVTGIEFEDLSKMDFVGAFSNYKDAYDAWKSAAQRTVDHAEMRYFILHAHKLL | condition not met |
| HMETIGKRVRAARQELGLTMKQLHEQTGLSTGNISDIENDRNTPSVSSLVALGRALRRSLDWLLTGEE | condition not met |
| HMTAYEGLPVTLIIDGRVFQQNLQKMNLSVEWLRLELKKFGVTNLKEVLFASLDTEGKLFYQLKT | condition not met |
| HMSTTGIVKWFNEEKGFGFITQDQGGADVFVHYRAIASEGFKTLAEGQKVSFEVEQGQKGLQAANVQA | condition met |
| HMQEISQEEALATVLKDLSLTEADLKDLQITREEDKYKILFSKGQTAYDVLVSAKDGQLLQSKQETI | condition met |
| HMLSDFHLNHDSIVNHTVQKKETIFSLSKKYGLSINEIIKANPGIQIDKLKRRSILIIPLRKK | condition not met |
| HMRTPTGVQAYLSSGLIKGIGEKTAAAIVDKFGTDALSVIETDPERLLEIPGITPNKLREILESYNQH | condition met |
| HMTSPNPLIRSTTPGLETNKKGGIIVDENEMSTRENVFAGGDAVTGAATVILAMGAGKKAAAAIDAKLQN | condition met |
| HMLEKVLDNHIHKLRLQHKISQQELADAIGVSRKTISTVETGRFTPSVVIALKIAAHFSVSVEQVFTL | condition not met |
| HMRAMWENLFFQYKEGFLPEEYYKQGIATGIRLAGPKFVEMNIPMQKEFEDEVHRLLAEHEKSVK | condition not met |
| HMKNIINFIVKEDDNNKRVDMILANHDKSLSRTRVKNLILDSKLKINERIVQDPSIKTKLNDKIELEIVEP | condition met |
| HMAVSGRGSIIGGVATVLDDFADSGKVWLEGEAWQARSSVPLKQDQEVVVRAMDGLVLVVEPVA | condition not met |
| HMNDTLGVNIKRLRKEKGMTQDEVAKAVYTTRYNILRYESGKMTPSSEVIERLEKALGVPTGSLAQ | condition met |
| HMLPKNITNTIDHWIQKFPQGKQRSAIIAALHAVQHHNKGFLTNDLLNQVADYIDVPKMNVYEVATFYSM | condition met |

###

PROTOCOL_DETAILS: soluble fraction after stress (log2 fold change); higher = more stays soluble; pooled small domains, quantitative proteomics
TEST_SETTINGS: stress: 75 degC
// bucketize soluble fraction (log2): low value (below -1), medium value (-1 to below 0.001), high value (0.001 or more)

| SEQUENCE_CODE | DISCRETE_LABEL |
| --- | --- |
| HMDNMFMPPVNGWDVRQALQKLQNEMGLQVKMEYSPSETITEGYVISYTPIDGMKVEKGDEVTLVISTGPE | medium value |
| HMGSRRFGDSNHAAKLTEEQVVEIRELAAAGATTKFLAEMVGMHPNYVGLILRGLSWPEAGGPLRVA | high value |
| HMPLNAFDVAGYRLGYGGGYFDRTLAALSPRPLAVGVGFEINRLESIRPEAHDQRLDWIVTENGAFRPA | low value |
| HMRKDEFLQTLRRALNGNVPPRVVEENVRYYDGYISDEVRKGRSEEEVIEEIGDPRLIARTIEDTT | high value |
| HMVAFYATPKERGIYDDAETYREGDIVSIADGSRWIYVNPTATAGNDPADGSVYWERMSGAATGP | high value |
| HMKQLLHLVIGGELKDVRGIEFEDLSKIDFVGAFPSYKAAYDAWKNAAQRTVDNAEMRYFILHAHR | low value |
| HMQIIEVPYSEFLKKLESGQISEVSRDSYQIVFTDRSQPPIIYKTGLMEDPGLVDKMQEAGVTFTSP | high value |
| HMKVSVPDIMDNSSLRQAEAKLRALGFRVTEPEYISGEKDWVYSVTYKGRTLNAGDKVPHEALLTLHVGNG | medium value |
| HMENRILLSEDSLKHLAQDIPIDIIEKLSVLKDQIYHRYDDFNSIVQGLLGGENYLKYKDNILSFVEQ | high value |
| HMRTIGDSVYEKIKYDIVHLTLKPGEKLSEASLAEKYGISKAPIRVALRKLQEEGLIVIRPQSGSIVSP | low value |
| HMITTLLVENLQDVGMRLDHYLVYNLIKYSRSHIQSFIRSGDIRVNGKKVKTGYSLELKDLIHIEMP | low value |
| HMLPPHMEVRAIMILDKRPMALMNIEGEGDGLIVSPGYRFGDGRGRVVSITQTKVVVLWAGTSMEL | low value |
| HMPLDYQELRNISPQAARQAILQILKANKGNVSQTARMLGITRKTVYKAMAKREAGNLDDGSRAPK | low value |
| HMSFKQARFMMDAANGKALAWLYSHAEVLDRKDQGENIEIHVMISPADLSRFVNAFGYQPVQS | low value |
| HMIQVNKTQALIIEEMRDNPNITLLELQKTLSLGRTAIQNNVSSLRKRQIIKRVGSNKNGYWEVTDK | low value |
| HMREQAHEVAGKLGYPVMVKASAGGGGKGIRIVRTEDELDQAFEAAQSETKAAFGDDQMYMEKVI | medium value |
